# assay_method_text: Evaluation test of water solubility (saturated solubility)
# Type: physicochemical
# setup_conditions: phosphate buffer (pH 7)
readout_name: Ratio to Roflumilast (saturated solubility)
# output: bare number, no unit

Examples with answers:
NC(=O)CN(C(=O)c1ccc(OC(F)F)c(OCC2CC2)c1)c1c(Cl)cncc1Cl [Reference Example 1, reference compound] ... 44.5
N#CCN(C(=O)c1ccc(OC(F)F)c(OCC2CC2)c1)c1c(Cl)cncc1Cl ... 4.4
CN(C(=O)c1ccc(OC(F)F)c(OCC2CC2)c1)c1c(Cl)cncc1Cl ... 26.0

Task: What value of Ratio to Roflumilast (saturated solubility) has been reported for the following molecule? O=C(Nc1c(Cl)cncc1Cl)c1ccc(OC(F)F)c(OCC2CC2)c1 [Comparative Example 1, reference compound]
Output: 1

Task: Record: O=C(c1ccc(OC(F)F)c(OCC2CC2)c1)N(CCO)c1c(Cl)cncc1Cl
Output: 33.4

Task: Record: O=C(O)CN(C(=O)c1ccc(OC(F)F)c(OCC2CC2)c1)c1c(Cl)cncc1Cl [Reference Example 2, reference compound]
Output: 1640.2

* * *

# assay_method_text: Evaluation test of water solubility (saturated solubility)
# Type: physicochemical
# setup_conditions: aqueous buffer, thermodynamic from solid; phosphate buffer (pH 7), ultrasonicated 30 minutes
readout_name: solubility at 30 min (µg/mL)
Field format: number, assumed µg/mL, no unit text.

Examples with answers:
O=C(O)CN(C(=O)c1ccc(OC(F)F)c(OCC2CC2)c1)c1c(Cl)cncc1Cl [Reference Example 2, reference compound] ... 612
CN(C(=O)c1ccc(OC(F)F)c(OCC2CC2)c1)c1c(Cl)cncc1Cl ... 9.7
N#CCN(C(=O)c1ccc(OC(F)F)c(OCC2CC2)c1)c1c(Cl)cncc1Cl ... 1.64

Task: What value of solubility at 30 min has been reported for the following molecule? NC(=O)CN(C(=O)c1ccc(OC(F)F)c(OCC2CC2)c1)c1c(Cl)cncc1Cl [Reference Example 1, reference compound]
Output: 16.6

Task: Record: O=C(Nc1c(Cl)cncc1Cl)c1ccc(OC(F)F)c(OCC2CC2)c1 [Comparative Example 1, reference compound]
Output: 0.373

Task: Record: O=C(c1ccc(OC(F)F)c(OCC2CC2)c1)N(CCO)c1c(Cl)cncc1Cl
Output: 12.5

* * *

Catalogue of Cumulative Amount of Permeation for 24 hours readings, one per entry.
# assay_method_text: Evaluation test of skin permeability (Franz diffusion cell)
# Assay type: in vitro ADME
# setup_conditions: hairless mouse skin, 1 w/w % in dimethyl sulfoxide, 100 μL, 32° C., 24 hours
Field format: number, assumed μg/cm^2, no unit text.

Examples with answers:
O=C(c1ccc(OC(F)F)c(OCC2CC2)c1)N(CCCO)c1c(Cl)cncc1Cl ... 163.5
CN(C(=O)c1ccc(OC(F)F)c(OCC2CC2)c1)c1c(Cl)cncc1Cl ... 51.0
O=C(O)CN(C(=O)c1ccc(OC(F)F)c(OCC2CC2)c1)c1c(Cl)cncc1Cl [Reference Example 2, reference compound] ... 56.9

Task: What value of Cumulative Amount of Permeation for 24 hours has been reported for the following compound? N#CCN(C(=O)c1ccc(OC(F)F)c(OCC2CC2)c1)c1c(Cl)cncc1Cl
Output: 12.1

Task: Record: COCN(C(=O)c1ccc(OC(F)F)c(OCC2CC2)c1)c1c(Cl)cncc1Cl
Output: 17.6

Task: Record: NC(=O)CN(C(=O)c1ccc(OC(F)F)c(OCC2CC2)c1)c1c(Cl)cncc1Cl [Reference Example 1, reference compound]
Output: 7.2

Task: Record: O=C(c1ccc(OC(F)F)c(OCC2CC2)c1)N(CCO)c1c(Cl)cncc1Cl
Output: 157.7

Task: Record: O=C(Nc1c(Cl)cncc1Cl)c1ccc(OC(F)F)c(OCC2CC2)c1 [Comparative Example 1, reference compound]
Output: 0.0
